// provenance: ChEMBL document CHEMBL1201862

Give GI50 for every item shown.
Give a bare numeral; the unit µM is implied.

The reported HCT-15 GI50 of "COC/C=C\[C@@]1(O)CCCC[C@@H]1CC(OC)OC" is 27.4

GI50 on HCT-15 for CN(N=O)C(=O)NC(CCCCNC(=O)OCc1ccccc1)C(=O)OCc1ccccc1 (stereo unspecified) is 36

The reported GI50 value, HCT-15, for "S=c1ssc2c3ssc(=S)c3n(Cc3ccccc3)c12" reads 39.3

Entry "CSc1c(C#N)c2n(c3ccccc3[n+]2C)c2ncccc12" , HCT-15 data, GI50 value: 21.5

---

Tested on: U-251
Assay: NCI tumour cell line growth inhibition, 48 h
Active and inactive are the calls of the source. Rule as the data show it: active = GI50 up to about 1.1 µM and inactive = higher.
Outcome field: choose from True for active, False for inactive

### Prompt Recorded test call requested for COC1CC(O[C@H]2CC[C@@]3(C)C(=CCC4(O)C3CCC35C(=O)OC6(C)O[C@@]43CCC65)C2)OC(C)C1O (some centres not stated)
### Response False

### Prompt Field: outcome | Entry: "Cc1c(C)c(CC(=O)N2CC2)c(C)c(C)c1CC(=O)N1CC1"
### Response False

### Prompt Can you look up the reported call for "O=C1C2=C(C3=NCCc4c[nH]c1c43)c1c(cc(Br)c(O)c1Br)CCN2" for me?
### Response False

### Prompt Field: outcome | Entry: "C/C=C/C(=O)[C@@H](O)C(C)C"
### Response False

### Prompt Can you look up the reported call for "COc1ccc2o/c(=N\c3ccc(F)cc3)c(C(N)=O)cc2c1" for me?
### Response False

### Prompt Answer briefly: the call reported for "S=C(S)N1CCN(c2ccc(Cl)c(Cl)c2)CC1" in this assay.
### Response False

### Prompt // param item: O=c1[nH]c(=O)n(C2C(CO)OC(CO)C2O)cc1F (configuration not stated) ; yields the recorded call
### Response False

### Prompt Which outcome was entered for the compound "COc1cc(C(=O)c2cocc2C(=O)c2ccc3c(c2)OCO3)cc(OC)c1OC" in this test?
### Response True

### Prompt # outcome recorded in this test, key = N#CC(C(=O)CCCC(=O)Nc1ccccc1[N+](=O)[O-])c1c(Cl)cccc1Cl (configuration not stated)
### Response False

### Prompt Hi team, can someone confirm the assay call for "CCCCCCCCCC(=O)CC(=O)c1c(O)cccc1O" ?
### Response False

### Prompt Recorded call for COc1ccc(C2(O)C(S(=O)(=O)c3ccc(C)cc3)=Cc3ccc(OC)cc32)cc1 (configuration not stated) ?
### Response False

### Prompt Field: outcome | Entry: "O=C(/C=C/c1ccccc1)CCC1C(=O)NC(=O)NC1=O"
### Response False

### Prompt I would be grateful if you could indicate the recorded call for CC1OC(O[C@@H]2OC=C(C=O)[C@@]3(O)CC[C@H](C)[C@@H]23)C(O)C(O)C1O (some centres not stated) .
### Response False

### Prompt Returns: the outcome recorded for "CSc1nc(NC2CCCC2)c2cc[nH]c2n1" in this assay.
### Response False

### Prompt Which outcome did this test record for the compound CC1C(c2ccccc2)O[B-](F)(c2ccccc2)[NH+]1C (configuration not stated) ?
### Response False

### Prompt Just curious, what result did "c1ccc(-n2cnnc2-c2nsc3ccccc23)cc1" get here?
### Response False

### Prompt Per the assay record, what outcome was assigned to OCC1C(OCc2ccccc2)C(OCc2ccccc2)C(OCc2ccccc2)CN1Cc1ccccc1 (configuration not stated) ?
### Response False

### Prompt Just curious, what result did "COc1ccc(N2C(=O)/C(=C(\C)c3cc4ccccc4oc3=O)N=C2c2cc([N+](=O)[O-])ccc2Cl)cc1" get here?
### Response False

### Prompt In this assay, the call recorded for CCOC(=O)C(NC(=O)CC)(Nc1ccc(S(=O)(=O)Nc2ccc(OC)nn2)cc1)C(F)(F)F (configuration not stated) was what?
### Response False

### Prompt Identify the outcome logged in this assay for the compound shown: "O=C1Cc2c([nH]c3ccc(Br)cc23)-c2cc(Br)ccc2N1"
### Response False

### Prompt Assay result, entry "NC12CC3C4CC5(N)CC3C(C1)C(C5)C4C2" — outcome?
### Response False

### Prompt Look up the recorded call for "Clc1ccc(-c2noc(CN3CCCCC3)n2)cc1" in this test.
### Response False
